Assayed Target: Proteasome Macropain subunit MB1 (Homo sapiens)
Measurement Notes: Inhibition of chymotrypsin-like activity of purified human 20S proteasome assessed as decrease in AMC hydrolysis using Suc-Leu-Leu-Val-Tyr-AMC as substrate incubated for 30 mins by fluorometric analysis
Recorded IC50, one value per entry.
Provide the reading as a plain figure in µM.

Solved cases (4 shown):
{"columns": ["Compound", "Reading Unit", "Numeric Value"],
 "data": [
  ["O=C(O[C@@H]1Cc2c(O)cc(O)cc2O[C@H]1c1ccc(O)c(O)c1)c1cc(O)c(O)c(O)c1 [(-)-CATECHINGALLATE]", "µM", 0.124],
  ["O=C(O[C@@H]1Cc2c(O)cc(O)cc2O[C@@H]1c1ccc(O)c(O)c1)c1cc(O)c(O)c(O)c1 [EPICATECHIN GALLATE]", "µM", 0.194],
  ["Oc1cc(O)c2c(c1)O[C@H](c1cc(O)c(O)c(O)c1)[C@H](O)C2 [EPIGALLOCATECHIN]", "µM", 1200],
  ["O=C(O[C@@H]1Cc2c(O)cc(O)cc2O[C@H]1c1cc(O)c(O)c(O)c1)c1cc(O)c(O)c(O)c1 [GALLOCATECHIN GALLATE]", "µM", 0.187]
]}

Moving on to the next compound.
query: Find the recorded IC50 belonging to O=C(O)c1cc(O)c(O)c(O)c1 and report it.
result: 7100

---

Assayed Target: Proteasome subunit beta type-5 (Rattus norvegicus)
Sequence (P28075 whole entry): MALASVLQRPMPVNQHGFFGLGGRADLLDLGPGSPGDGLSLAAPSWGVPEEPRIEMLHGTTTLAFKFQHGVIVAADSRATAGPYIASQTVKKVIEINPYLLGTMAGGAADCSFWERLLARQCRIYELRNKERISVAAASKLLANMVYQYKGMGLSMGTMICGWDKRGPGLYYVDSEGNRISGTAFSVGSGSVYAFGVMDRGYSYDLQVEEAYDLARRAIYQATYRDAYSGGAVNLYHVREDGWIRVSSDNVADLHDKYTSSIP
Measurement Notes: Inhibition of chymotrypsin-like activity of rat liver 26 proteasome assessed as decrease in fluorescence using succinyl-Leu-Leu-Val-Tyr-4-methylcoumaryl-7-amide as substrate preincubated for 30 mins followed by addition of substrate and measured after 1 hr by fluorescence based method
Experimental Readout: IC50 (µg/mL)
Report as a plain number; the unit µg/mL is understood.

query: Value lookup for IC50; key = Oc1ccc(CC2COc3cc(O)ccc3C2)cc1 (centres undefined)
result: 0.06

query: Need IC50 of COc1cc(O)ccc1CCCc1ccc(O)cc1 [BROUSSONIN B] , thanks.
result: 0.046

query: Give the measured IC50 of C=CC(/C=C\c1ccc(O)cc1)c1ccc(O)cc1 (centres undefined) .
result: 0.018

---

Assayed Target: Proteasome Macropain subunit MB1 (Homo sapiens, UniProt P28074)
Sequence (P28074 whole entry): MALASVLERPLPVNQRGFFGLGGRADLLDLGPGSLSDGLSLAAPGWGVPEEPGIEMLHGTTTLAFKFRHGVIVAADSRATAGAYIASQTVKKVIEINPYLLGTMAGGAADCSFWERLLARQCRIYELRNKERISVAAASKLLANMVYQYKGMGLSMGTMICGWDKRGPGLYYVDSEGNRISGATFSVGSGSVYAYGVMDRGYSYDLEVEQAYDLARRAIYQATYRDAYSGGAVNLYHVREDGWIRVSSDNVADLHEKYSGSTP
Measurement Notes: Inhibition of chymotrypsin-like activity of purified human erythrocyte 20S proteasome assessed as decrease in AMC hydrolysis using Suc-LLVY-AMC as substrate preincubated for 10 mins and measured by fluorescence based method
Experimental Readout: IC50

{"columns": ["Chem Smiles", "IC50"],
 "data": [
  ["COc1ccc(-c2coc3cc(O)ccc3c2=O)cc1", "> 100 µM"],
  ["O=c1c(-c2ccc(O)cc2)coc2cc(O)cc(O)c12", "9.26 µM"]
]}

query: For the molecule shown here, O=C(/C=C/c1ccc(O)cc1)c1ccc(O)cc1O , give the reported IC50.
result: 4.88 µM

query: Sample O=c1c(-c2ccc(O)cc2)coc2cc(O)ccc12 — what was its IC50?
result: > 100 µM

query: Which IC50 value belongs to O=C1C[C@@H](c2ccc(O)cc2)Oc2cc(O)ccc21 ?
result: > 100 µM

query: Quick one: IC50 of COc1ccc2c(c1)O[C@H]1c3ccc(O)cc3OC[C@@H]21 ?
result: > 100 µM
